GI50 reference
molecular target: BaF3 TELJAK3 cells (Homo sapiens); construct: fused on or other part: TEL (ETV6) N-terminal part, coding nucleotides 1-487, serves as the oligomerising partner; It is fused through a Sal I site to the JAK3 kinase domain and expressed from pTRE2 in BaF3 cells bearing pTET-off; P41212 (Transcription factor ETV6); assay: Cellular screening, BaF3 TEL:JAK3 cells, Alamar Blue; assay type: cell-based; details: 40 hr, read-out: BafT_J3 IC50_nM
Sequence (P52333 whole entry, change not shown, the tested form may be a part): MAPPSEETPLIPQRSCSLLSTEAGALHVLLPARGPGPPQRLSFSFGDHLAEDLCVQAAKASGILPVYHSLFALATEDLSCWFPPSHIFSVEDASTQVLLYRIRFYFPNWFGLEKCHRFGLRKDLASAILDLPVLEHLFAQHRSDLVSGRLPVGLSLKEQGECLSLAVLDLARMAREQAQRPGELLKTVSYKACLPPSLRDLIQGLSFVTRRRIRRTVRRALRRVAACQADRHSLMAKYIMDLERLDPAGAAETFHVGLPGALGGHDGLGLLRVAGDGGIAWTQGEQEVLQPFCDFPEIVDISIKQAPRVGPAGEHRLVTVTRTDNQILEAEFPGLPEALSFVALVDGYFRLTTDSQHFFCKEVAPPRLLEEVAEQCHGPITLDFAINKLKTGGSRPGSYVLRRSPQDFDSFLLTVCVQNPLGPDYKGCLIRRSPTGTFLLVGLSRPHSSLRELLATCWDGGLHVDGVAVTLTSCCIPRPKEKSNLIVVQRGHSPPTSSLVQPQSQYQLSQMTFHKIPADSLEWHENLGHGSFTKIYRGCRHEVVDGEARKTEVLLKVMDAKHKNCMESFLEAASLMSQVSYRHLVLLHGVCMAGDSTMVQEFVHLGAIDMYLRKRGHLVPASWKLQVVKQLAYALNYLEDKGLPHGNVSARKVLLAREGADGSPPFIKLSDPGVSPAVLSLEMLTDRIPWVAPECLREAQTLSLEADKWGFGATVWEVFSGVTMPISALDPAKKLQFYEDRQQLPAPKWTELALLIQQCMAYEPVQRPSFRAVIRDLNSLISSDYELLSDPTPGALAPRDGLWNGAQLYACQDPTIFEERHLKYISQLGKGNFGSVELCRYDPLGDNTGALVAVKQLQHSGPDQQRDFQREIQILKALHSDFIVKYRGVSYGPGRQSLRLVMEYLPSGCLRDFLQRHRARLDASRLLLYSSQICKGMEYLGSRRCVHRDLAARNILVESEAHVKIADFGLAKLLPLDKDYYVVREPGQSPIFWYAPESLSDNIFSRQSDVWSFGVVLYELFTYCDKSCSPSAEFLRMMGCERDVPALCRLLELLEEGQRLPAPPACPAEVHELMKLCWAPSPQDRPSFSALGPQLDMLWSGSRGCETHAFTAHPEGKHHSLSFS

Answered cases to consult:
Compound	Quantity measured	Result
Cc1cnc(Nc2ccc(N3CCOCC3)cc2)nc1Sc1ccc(C(C#N)N2CCOCC2)cc1 (stereo not shown) [Compound 223]	GI50	< 20000 nM
Cc1cnc(Nc2ccc(N3CCOCC3)cc2)nc1Sc1ccc(C#N)cc1 [Compound 136]	GI50	> 20000 nM
C=CC(=O)Nc1ccc(Sc2nc(Nc3ccc(C4CCN(C)CC4)cc3)ncc2C)cc1 [Compound 246]	GI50	< 1000 nM
C=CC(=O)N(C)c1ccc(Sc2nc(Nc3ccc(N4CCOCC4)cc3)ncc2C)cc1 [Compound 173]	GI50	< 1000 nM
O=C(/C=C/Cl)Nc1cccc(Sc2ccnc(Nc3ccc(N4CCOCC4)cc3)n2)c1 [Compound 340]	GI50	< 1000 nM

Record request: GI50 value, item C=CC(=O)Nc1ccc(Sc2nc(Nc3ccc(N4CCOCC4)cc3)ncc2Br)cc1 [Compound 306]
< 1000 nM

Quick one: GI50 for C=CC(=O)Nc1ccc(Sc2ccnc(Nc3ccc(N4CCC(N5CCCC5)CC4)cc3)n2)cc1 [Compound 87] ?
< 1000 nM
